Source of measurements: paper PMC9268571

Overview of reported Papp at 24 h across a group of molecules:
test: in vitro; conditions: male, pig

                                   molecule  reported_measurement
0  CCOC(=O)c1ccc(O)cc1 [EP, Ethyl 4-hydroxybenzoate]      0.261 ×10⁻⁶ cm/s

From here, focus on the item given below.
Which measured Papp at 24 h value corresponds to O=C(O)c1ccc(O)cc1 [pHBA, 4-Hydroxybenzoic acid] ?
3.33 ×10⁻⁶ cm/s

* * *

test: IAM chromatography (phospholipophilicity) on IAM.PC.DD2; type: physicochemical; settings: 0.1 M phosphate buffer pH 5.0/acetonitrile, extrapolated to 100% aqueous phase
parameter: logkw IAM.DD2
Write the value as a bare number.

>>> print(df.to_string())
                                   compound  reported_measurement
0  CC(C)COC(=O)c1ccc(O)cc1 [iBuP, Isobutyl 4-hydroxybenzoate]                 2.448

From here, focus on the item given below.
Which measured logkw IAM.DD2 value corresponds to CCCCOC(=O)c1ccc(O)cc1 [BuP, Butyl 4-hydroxybenzoate] ?
2.812

* * *

test: IAM chromatography (phospholipophilicity) on IAM.PC.MG; assay type: physicochemical; conditions: 0.1 M phosphate buffer pH 5.0/acetonitrile, extrapolated to 100% aqueous phase
parameter: logkw IAM.MG
Write the value as a bare number.

In [3]: df
Out[3]:
                                   compound  reported_measurement
0  O=C(OCc1ccccc1)c1ccc(O)cc1 [BzP, Benzyl 4-hydroxybenzoate]                 2.292
1  CC(C)OC(=O)c1ccc(O)cc1 [iPrP, Isopropyl 4-hydroxybenzoate]                 1.227
2  CC(C)COC(=O)c1ccc(O)cc1 [iBuP, Isobutyl 4-hydroxybenzoate]                 1.708
3  COC(=O)c1ccc(O)cc1 [MP, Methyl 4-hydroxybenzoate]                 0.615

Which measured logkw IAM.MG value corresponds to CCCOC(=O)c1ccc(O)cc1 [PrP, Propyl 4-hydroxybenzoate] ?
1.339

Record: CCCCOC(=O)c1ccc(O)cc1 [BuP, Butyl 4-hydroxybenzoate]
1.818

Record: CCOC(=O)c1ccc(O)cc1 [EP, Ethyl 4-hydroxybenzoate]
0.956

* * *

assay: IAM chromatography (phospholipophilicity) on IAM.PC.DD2; assay type: physicochemical; conditions: 0.1 M phosphate buffer pH 5.0/acetonitrile, extrapolated to 100% aqueous phase
parameter: logkw IAM.DD2
Write the value as a bare number.

// below: answered compounds
>>> print(df.to_string())
                                   compound  reported_measurement
0  CC(C)OC(=O)c1ccc(O)cc1 [iPrP, Isopropyl 4-hydroxybenzoate]                 1.914
1  O=C(OCc1ccccc1)c1ccc(O)cc1 [BzP, Benzyl 4-hydroxybenzoate]                 2.735
2  CCCOC(=O)c1ccc(O)cc1 [PrP, Propyl 4-hydroxybenzoate]                 2.267
3  CCOC(=O)c1ccc(O)cc1 [EP, Ethyl 4-hydroxybenzoate]                 1.751

From here, focus on the item given below.
Which measured logkw IAM.DD2 value corresponds to COC(=O)c1ccc(O)cc1 [MP, Methyl 4-hydroxybenzoate] ?
1.306
